# melting point values compiled below

>  <Compound>
N#Cc1ccc(NC(=O)c2cc3sc(N4CCOCC4)nc3s2)cc1

>  <Units>
°C

>  <melting point>
212

$$$$
>  <Compound>
Cc1nc2cc(NC(=O)c3cc4sc(N5CC(C)OC(C)C5)nc4s3)ccc2o1 (stereo not drawn)

>  <Units>
°C

>  <melting point>
274

$$$$
>  <Compound>
Cc1nnc(-c2ccc(NC(=O)c3cc4sc(N5CCOCC5)nc4s3)cc2)o1

>  <Units>
°C

>  <melting point>
319.1

$$$$
>  <Compound>
O=C(Nc1ccc(F)cc1)c1cc2sc(N3CCC(O)CC3)nc2s1

>  <Units>
°C

>  <melting point>
241.7

$$$$
>  <Compound>
CN(C)C(=O)C1CCN(c2nc3sc(C(=O)Nc4ccc5oc(CCc6ccc(F)cc6)nc5c4)cc3s2)CC1

>  <Units>
°C

>  <melting point>
259

$$$$
>  <Compound>
COc1ccc(CCNC(=O)c2cc3nc(N4CCCCC4)sc3s2)cc1

>  <Units>
°C

>  <melting point>
188

$$$$
>  <Compound>
O=C(Nc1cccc(Br)c1)c1cc2sc(N3CCOCC3)nc2s1

>  <Units>
°C

>  <melting point>
199

$$$$
>  <Compound>
COC(=O)c1ccc(CCNC(=O)c2cc3sc(N4CCCCC4)nc3s2)cc1

>  <Units>
°C

>  <melting point>
212.9

$$$$
>  <Compound>
O=C(Nc1ccc(O)cc1)c1cc2sc(N3CCCCC3)nc2s1

>  <Units>
°C

>  <melting point>
246

$$$$
>  <Compound>
O=C(Nc1ccc(Oc2ccccc2)cc1)c1cc2nc(N3CCCCC3)sc2s1

>  <Units>
°C

>  <melting point>
225.8

$$$$
>  <Compound>
O=C(Nc1ccc(Oc2ccc(Cl)cc2)cc1)c1cc2sc(N3CCOCC3)nc2s1

>  <Units>
°C

>  <melting point>
225

$$$$
>  <Compound>
O=C(Nc1ccc(CN2CCN(c3ccc(Cl)cc3)CC2)cc1)c1cc2sc(N3CCOCC3)nc2s1

>  <Units>
°C

>  <melting point>
249.9

$$$$
>  <Compound>
O=C(Nc1ccc2ncoc2c1)c1cc2sc(N3CCOCC3)nc2s1

>  <Units>
°C

>  <melting point>
281.8

$$$$
>  <Compound>
O=C(Nc1ccc(Cl)cc1)c1cc2nc(N3CCCCC3)sc2s1

>  <Units>
°C

>  <melting point>
230

$$$$
>  <Compound>
COc1ccc(NC(=O)c2cc3sc(N4CCC(C(=O)N(C)C)CC4)nc3s2)cc1

>  <Units>
°C

>  <melting point>
273.4

$$$$
>  <Compound>
O=C(c1cc2sc(N3CCOCC3)nc2s1)N1CCC(Cc2ccc(Cl)cc2)CC1

>  <Units>
°C

>  <melting point>
167.2

$$$$
>  <Compound>
Cc1nn(C)cc1-c1ccc(NC(=O)c2cc3sc(N4CCOCC4)nc3s2)cc1

>  <Units>
°C

>  <melting point>
245

$$$$
>  <Compound>
Cc1nc2cc(NC(=O)c3cc4sc(N5CCC(COc6ccc(Cl)cc6)CC5)nc4s3)ccc2o1

>  <Units>
°C

>  <melting point>
256

$$$$

---

>  <Compound>
COc1ccc(NC(=O)c2cc3sc(N4CCC(C(N)=O)CC4)nc3s2)cc1 [Compound 126]

>  <melting point / °C>
276.1

$$$$
>  <Compound>
O=C(Nc1ccc(F)cc1)c1cc2sc(N3CCOCC3)nc2s1 [Compound 99]

>  <melting point / °C>
240

$$$$
>  <Compound>
O=C(Nc1ccc(-c2cc[nH]n2)cc1)c1cc2sc(N3CCOCC3)nc2s1 [Compound 156]

>  <melting point / °C>
319

$$$$
>  <Compound>
COc1ccc(NC(=O)c2ccc3nc(N4CCCCC4)sc3c2)cc1 [Compound 5]

>  <melting point / °C>
214

$$$$
>  <Compound>
Cc1nc2cc(NC(=O)c3cc4sc(N5CCC(O)CC5)nc4s3)ccc2o1 [Compound 122]

>  <melting point / °C>
238.5

$$$$
>  <Compound>
CCN(CC)C(=O)c1cc2sc(N3CCCCC3)nc2s1 [Compound 57]

>  <melting point / °C>
84

$$$$
>  <Compound>
COc1ccc(NC(=O)c2cc3sc(NC4CCCC4)nc3s2)cc1 [Compound 90]

>  <melting point / °C>
239.3

$$$$
>  <Compound>
N#Cc1ccc(NC(=O)c2cc3sc(N4CCCCC4)nc3s2)cc1 [Compound 54]

>  <melting point / °C>
177

$$$$
>  <Compound>
O=C(Nc1cccc(OCc2ccccc2)c1)c1cc2sc(N3CCOCC3)nc2s1 [Compound 109]

>  <melting point / °C>
223.4

$$$$

---

>  <Compound>
Cc1nc2c(NC(=O)c3cc4sc(N5CCOCC5)nc4s3)cccc2o1

>  <melting point / °C>
209.3

$$$$
>  <Compound>
COc1cc(NC(=O)c2cc3sc(N4CCCCC4)nc3s2)cc(OC)c1

>  <melting point / °C>
148

$$$$
>  <Compound>
COc1ccc(NC(=O)c2cc3sc(N4CC5CC4CN5C(=O)OC(C)(C)C)nc3s2)cc1 (centres unmarked)

>  <melting point / °C>
249

$$$$
>  <Compound>
CCOC(=O)c1ccc(NC(=O)c2cc3sc(N4CCOCC4)nc3s2)cc1

>  <melting point / °C>
274

$$$$
>  <Compound>
COc1ccc(NC(=O)c2cc3sc(N4CCC(C(=O)N5CCOCC5)CC4)nc3s2)cc1

>  <melting point / °C>
268

$$$$

---

The entries below come with measured melting point values attached.

>  <Cpd Smiles>
O=C(Nc1ccc(N2CCC(c3ccc(Cl)cc3)CC2)cc1)c1cc2sc(N3CCOCC3)nc2s1

>  <melting point / °C>
281.1

$$$$
>  <Cpd Smiles>
O=C(Nc1ccc(F)c(F)c1)c1ccc2nc(N3CCCCC3)ccc2c1

>  <melting point / °C>
194

$$$$
>  <Cpd Smiles>
Cc1nnc(-c2ccc(NC(=O)c3cc4sc(N5CCC(O)CC5)nc4s3)cc2)o1

>  <melting point / °C>
334.4

$$$$
>  <Cpd Smiles>
COc1cc(NC(=O)c2cc3nc(N4CCCCC4)sc3s2)cc(OC)c1

>  <melting point / °C>
231.2

$$$$
>  <Cpd Smiles>
CN(C)C(=O)C1CCN(c2nc3sc(C(=O)Nc4ccc(F)cc4)cc3s2)CC1

>  <melting point / °C>
296.2

$$$$

---

melting point reference

>  <Compound>
Cc1nc2cc(NC(=O)N3CCc4nc(N5CCOCC5)sc4C3)ccc2o1

>  <melting point, °C>
104

$$$$
>  <Compound>
COc1ccc(NC(=O)c2cc3sc(N4CCN5CCCC5C4)nc3s2)cc1 (stereo not drawn)

>  <melting point, °C>
195

$$$$
>  <Compound>
CCc1cc2oc(C)nc2cc1NC(=O)c1cc2sc(N3CCOCC3)nc2s1

>  <melting point, °C>
244

$$$$
>  <Compound>
COc1ccc(NC(=O)c2cc3sc(C(C)C)nc3s2)cc1

>  <melting point, °C>
149

$$$$
>  <Compound>
Cc1nc2cc(NC(=O)c3cc4sc(N5CCC(CO)CC5)nc4s3)ccc2o1

>  <melting point, °C>
196.4

$$$$
>  <Compound>
CN(C)C(=O)C1CCN(c2nc3sc(C(=O)Nc4ccc(F)nc4)cc3s2)CC1

>  <melting point, °C>
295.9

$$$$
>  <Compound>
O=C(Nc1ccn(-c2ccccc2)n1)c1cc2sc(N3CCOCC3)nc2s1

>  <melting point, °C>
257.8

$$$$
>  <Compound>
COC1CCN(c2nc3sc(C(=O)Nc4ccc5oc(C)nc5c4)cc3s2)CC1

>  <melting point, °C>
237.9

$$$$
>  <Compound>
Cc1nc2cc(Cl)c(NC(=O)c3cc4sc(N5CCOCC5)nc4s3)cc2o1

>  <melting point, °C>
275.3

$$$$

---

>  <Compound>
COc1ccc(NC(=O)c2cc3nc(N4CCCCC4)sc3s2)cn1

>  <melting point / °C>
270

$$$$
>  <Compound>
Cc1ccc(-c2ccc(NC(=O)c3cc4sc(N5CCOCC5)nc4s3)cc2)cn1

>  <melting point / °C>
292

$$$$
>  <Compound>
O=C(Nc1ccc(-c2cc3n(n2)CCO3)cc1)c1cc2sc(N3CCOCC3)nc2s1

>  <melting point / °C>
361.2

$$$$
>  <Compound>
COc1ccc(CNc2nc3sc(C(=O)Nc4ccc(OC)cc4)cc3s2)cc1

>  <melting point / °C>
243

$$$$
>  <Compound>
COc1ccc(NC(=O)c2cc3sc(N4CCC(F)(F)CC4)nc3s2)cc1

>  <melting point / °C>
263.5

$$$$
>  <Compound>
O=C(Nc1ccc(F)cc1)c1cc2sc(N3CCNCC3)nc2s1

>  <melting point / °C>
247.5

$$$$
>  <Compound>
O=C(Nc1ccc(F)c(F)c1)c1cc2sc(N3CCCCC3)nc2s1

>  <melting point / °C>
218

$$$$
>  <Compound>
CC(=O)c1ccc(NC(=O)c2cc3sc(N4CCOCC4)nc3s2)cc1

>  <melting point / °C>
248

$$$$
>  <Compound>
CCC1CN(c2nc3sc(C(=O)Nc4ccc5oc(C)nc5c4)cc3s2)CCO1 (stereo not drawn)

>  <melting point / °C>
214

$$$$

This collection of values is drawn from patent US11279714B2.
